All values here come from ChEMBL document CHEMBL1201862.

# System: PC-3
# assay: NCI tumour cell line growth inhibition, 48 h
Activity calls are given as the source filed them. No stated cut-off is given here; in the data, active = GI50 up to about 1.1 µM and inactive = higher.
Entries and their GI50 values follow.
measurement-type: GI50

INSERT INTO measurements (molecule, target_or_system, recorded_value) VALUES
  ('Cc1cc(NS(=O)(=O)c2ccc(NC(=O)c3ccc4nc5ccccc5c(Nc5ccc(S(=O)(=O)Nc6cc(C)on6)cc5)c4c3)cc2)no1', 'PC-3', '> 50 µM (inactive)'),
  ('Cc1sc2nc3n(sc4nc5sc(C)c(C)c5c(=O)n43)c(=O)c2c1C', 'PC-3', '> 100 µM (inactive)'),
  ('COc1cc([N+](=O)[O-])c(S(=O)(=O)[O-])cc1-[n+]1nc(C(=O)Nc2ccccc2)nn1-c1ccc([N+](=O)[O-])c(S(=O)(=O)O)c1', 'PC-3', '> 100 µM (inactive)'),
  ('CC(=O)c1nc2ccccc2n1C(C)C(=O)c1ccccc1 (centres undefined)', 'PC-3', '72.1 µM (inactive)'),
  ('C=C(C)[C@H]1CC(=O)[C@@]2(C)C[C@H]3O[C@]3(C)CC/C=C(\C)CC[C@H]12', 'PC-3', '34.7 µM (inactive)'),
  ('O=C(O)CCC(=O)Nc1ccc2c(c1)S(=O)(=O)N(CC(=O)O)C2=O', 'PC-3', '> 100 µM (inactive)'),
  ('COC(=O)C1=NN2c3ccccc3C(=O)OCCC2(C)C1 (centres undefined)', 'PC-3', '> 100 µM (inactive)'),
  ('CCN(CC)CC(O)c1ccc2ccc3ccccc3c2c1 (centres undefined)', 'PC-3', '15.8 µM (inactive)'),
  ('O=C(O)Cc1ccccc1 [PHENYLACETIC ACID]', 'PC-3', '> 100 µM (inactive)'),
  ('Cc1ccc2c(c1)SSSSS2', 'PC-3', '22.5 µM (inactive)'),
  ('CC(=O)OCC1OC(n2c3c(c(-c4cccc5ccccc45)c(C#N)c2=S)CCCC3)C(OC(C)=O)C(OC(C)=O)C1OC(C)=O (centres undefined)', 'PC-3', '27.7 µM (inactive)'),
  ('CC(O)c1cc2c(s1)C(=O)c1ccsc1C2=O (centres undefined)', 'PC-3', '0.0632 µM (active)'),
  ('Cc1cc(O)c2c(=O)c3c(O)cc(O)c4c5c(O)cc(O)c6c(=O)c7c(O)cc(C)c8c1c2c(c34)c(c78)c65 [HYPERICIN]', 'PC-3', '> 100 µM (inactive)'),
  ('CC[C@]1(Cc2ccc(OC)c(OC)c2)[C@@H]2C[C@@H](C3OCCO3)ON2O[C@H](OC2CCCC2(c2ccccc2)c2ccccc2)[C@@H]1OC(C)=O (some centres undefined)', 'PC-3', '24.4 µM (inactive)'),
  ('C=C1C(=O)C2=CC1CCC(=O)C1(C)CCC(OC(C)=O)C(C)(C)C1CC2O (centres undefined)', 'PC-3', '7.19 µM (inactive)'),
  ('Clc1ccc(OCc2nnc(CCCCCCCCc3nnc(COc4ccc(Cl)cc4)n3Nc3ccccc3)n2Nc2ccccc2)cc1', 'PC-3', '1.44 µM (inactive)'),
  ('COc1cc(Oc2nc3ccc(C(F)(F)F)cc3nc2-c2ccccc2)cc(OC)c1OC', 'PC-3', '22.6 µM (inactive)'),
  ('O=C1c2cccnc2C(=O)c2c1nc1ccccc1c2-c1cncc(-c2c3c(nc4ccccc24)C(=O)c2cccnc2C3=O)c1', 'PC-3', '0.303 µM (active)'),
  ('CC(=O)Nc1ccc(Sc2nnc(NC(C)=O)s2)cc1', 'PC-3', '> 100 µM (inactive)');
